- test.target: human PTH1 receptor (Homo sapiens, UniProt Q03431)
- Sequence (Q03431 27-593): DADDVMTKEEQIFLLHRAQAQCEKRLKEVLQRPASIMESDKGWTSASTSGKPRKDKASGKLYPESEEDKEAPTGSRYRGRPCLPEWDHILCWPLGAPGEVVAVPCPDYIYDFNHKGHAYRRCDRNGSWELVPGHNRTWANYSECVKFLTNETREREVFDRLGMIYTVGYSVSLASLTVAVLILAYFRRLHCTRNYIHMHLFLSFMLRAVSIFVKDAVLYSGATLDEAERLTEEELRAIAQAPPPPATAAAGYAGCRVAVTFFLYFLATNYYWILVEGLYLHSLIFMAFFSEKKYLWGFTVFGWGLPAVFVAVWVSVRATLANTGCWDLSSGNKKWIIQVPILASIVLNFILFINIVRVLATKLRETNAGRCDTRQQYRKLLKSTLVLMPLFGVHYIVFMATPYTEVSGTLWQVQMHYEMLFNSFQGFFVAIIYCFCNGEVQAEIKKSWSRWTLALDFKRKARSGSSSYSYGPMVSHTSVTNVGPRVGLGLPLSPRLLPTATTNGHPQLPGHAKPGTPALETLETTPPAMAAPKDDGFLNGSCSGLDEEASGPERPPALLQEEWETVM
- assay.details: In vitro cAMP signal activity in HKRK-B7 cells (LLC-PK1 cells overexpressing the human PTH1 receptor)
- Assay type: cell-based
- experimental.context: HKRK-B7 cells; compound at 1×10^−3 M; cAMP produced as percentage of that produced by hPTH(1-34) at 100 nM
Tick YES if cAMP production activity (%) is 80% or greater. Tick NO if cAMP production activity (%) is less than 80%.

Prompt: # check: cAMP production activity (%) of Cc1cc(N(C)C(N)=O)cc(C)c1CCS(=O)(=O)N1CCC2(CC1)N=C(C1CCCC(C(F)(F)F)C1)NC2=O (centres unmarked) is greater than or equal to 80%
Response: YES

Prompt: Identify whether the reported cAMP production activity (%) of the following molecule is 80% or greater: Cc1cc(N(C)C(=O)CN)cc(C)c1/C=C/S(=O)(=O)N1CCC2(CC1)N=C(c1cccc(OC(F)(F)F)c1)NC2=O
Response: NO

Prompt: Does the reported cAMP production activity (%) for Cc1cc(N(C)C(N)=O)cc(C)c1CCS(=O)(=O)N1CCC2(CC1)N=C(c1ccc(CCCC(F)(F)F)cc1)NC2=O fall at or above the 80% mark?
Response: YES

Prompt: Check the entry Cc1cc(N(C)C(N)=O)cc(C)c1/C=C/S(=O)(=O)N1CCC2(CC1)N=C(CCCCCc1ccccc1)NC2=O.O=C(O)C(F)(F)F : does cAMP production activity (%) equal or exceed 80%?
Response: YES

Prompt: Hi team, for Cc1cc(N2C(=O)CNC2=O)ccc1CCS(=O)(=O)N1CCC2(CC1)N=C(C1CCC(CCC(F)F)CC1)NC2=O (centres unmarked) , is the recorded cAMP production activity (%) at or above 80%?
Response: YES

Prompt: Is cAMP production activity (%) at least 80%? Consider CC(=O)Nc1ccc(CCS(=O)(=O)N2CCC3(CC2)N=C(C2CCC(CCCCl)CC2)NC3=O)c(C)c1 (centres unmarked)
Response: YES

Prompt: Exam item: decide whether the reported cAMP production activity (%) for O=C(NCc1ccccc1)c1cccc(C2=NC3(CCN(S(=O)(=O)c4cccc(Cl)c4)CC3)C(=O)N2)c1 is at least 80%.
Response: NO

Prompt: Quick check, cAMP production activity (%) >= 80%? [2H]C([2H])([2H])C([2H])(Oc1cc(C2=NC3(CCN(S(=O)(=O)/C=C/c4c(C)cc(C(=O)N5CCC(C)(O)CC5)cc4C)CC3)C(=O)N2)ccc1F)C([2H])([2H])[2H]
Response: YES

Prompt: State whether the measured cAMP production activity (%) reaches 80%, counting equality as reaching it, for Cc1cc(N(C)C(N)=O)cc(C)c1CCS(=O)(=O)N1CCC2(CC1)N=C(C(C1CC1)C1CC1)NC2=O
Response: NO

Prompt: Does cAMP production activity (%) meet or surpass 80% for CCOc1cc(NC(C)=O)ccc1CCS(=O)(=O)N1CCC2(CC1)N=C(C1CCC(C)CC1)NC2=O (centres unmarked) ?
Response: YES

Prompt: Quick check, cAMP production activity (%) >= 80%? Cc1cc(C(=O)N2CCC[C@H]2C(F)(F)F)ccc1CCS(=O)(=O)N1CCC2(CC1)N=C(c1cccc(C(F)(F)F)c1)NC2=O
Response: NO

Prompt: Does the molecule Cc1cc(C(=O)N(C)C)ccc1CCS(=O)(=O)N1CCC2(CC1)N=C(c1cc(C(F)(F)F)cc(C(F)(F)F)c1)NC2=O have recorded cAMP production activity (%) that is 80% or more?
Response: NO

Prompt: Is the recorded value of cAMP production activity (%) equal to or greater than 80% for this molecule? Cc1cc(C(=O)N2CC[C@@H](O)C2)ccc1CCS(=O)(=O)N1CCC2(CC1)N=C(c1cccc(C(F)(F)F)c1)NC2=O
Response: YES

Prompt: Would you say Cc1cc(N(C)C(N)=O)cc(C)c1/C=C/S(=O)(=O)N1CCC2(CC1)N=C(CCCCCCCCC(F)(F)F)NC2=O shows cAMP production activity (%) at minimum 80%?
Response: YES

Prompt: Exam item: decide whether the reported cAMP production activity (%) for CCCCCCCCC1=NC2(CCN([S@TB17](=O)(=O)CCc3c(C)cc(N(C)C(N)=O)cc3C)CC2)C(=O)N1 is at least 80%.
Response: NO

Prompt: Item Cc1cc(S(N)(=O)=O)ccc1CCS(=O)(=O)N1CCC2(CC1)N=C(c1cccc(C(F)(F)F)c1)NC2=O with cAMP production activity (%) of 80% or above?
Response: NO

Prompt: Assess whether reported cAMP production activity (%) for Cc1cc2ccc1CCS(=O)(=O)N1CCC3(CC1)N=C(NC3=O)c1cc(cc(C(F)(F)F)c1)OCCCCCOCCN(CCO)C2=O sits at 80% or higher.
Response: NO

Prompt: For this molecule, is measured cAMP production activity (%) 80% or higher? COc1ccc(-c2ccccc2CCS(=O)(=O)N2CCC3(CC2)N=C(C2CCCCC2)NC3=O)cn1
Response: NO

Prompt: Kindly determine if cAMP production activity (%) recorded for COc1cccc(OC)c1C1=NC2(CCN(S(=O)(=O)CCc3ccc(C(=O)N(C)C)cc3C)CC2)C(=O)N1 is above or exactly 80%.
Response: NO
